# System: ~100 representative kinases (Homo sapiens, UniProt Q00532)
# Construct: Recombinant protein kinase domains with a concentration of 2 μM
# Sequence (Q00532 whole entry, the tested form may be a part): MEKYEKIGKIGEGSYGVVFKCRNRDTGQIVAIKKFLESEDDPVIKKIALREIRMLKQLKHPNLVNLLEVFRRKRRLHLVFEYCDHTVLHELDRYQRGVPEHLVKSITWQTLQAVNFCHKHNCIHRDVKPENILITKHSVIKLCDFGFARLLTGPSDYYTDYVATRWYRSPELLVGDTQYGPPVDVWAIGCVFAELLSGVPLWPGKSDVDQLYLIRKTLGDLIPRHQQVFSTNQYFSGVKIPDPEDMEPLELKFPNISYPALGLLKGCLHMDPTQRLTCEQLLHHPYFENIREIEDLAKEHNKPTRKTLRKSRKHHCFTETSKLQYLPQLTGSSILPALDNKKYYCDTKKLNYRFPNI
# Assay Details: DSF 100 kinase selectivity screen;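 further: compound tested at 20 µM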
# Format: binding
# Conditions Used: Protein CDKL1; average of three replicates

Compound | System | dTm, K
O=C(Nc1ccccc1)C1(C(=O)Nc2cccc(-c3c[nH]c4ncnc(N5CCOCC5)c34)c2)CC1 | ~100 representative kinases (Homo sapiens, UniProt Q00532) | 3.09
Cc1ccc(C(=O)Nc2ccc(CN3CCN(C)CC3)c(C(F)(F)F)c2)cc1C#Cc1cnc2[nH]ncc2c1 [GZD-824, reference compound] | ~100 representative kinases (Homo sapiens, UniProt Q00532) | 4.34
O=C(Nc1cccc(-c2c[nH]c3ncnc(N4CCOCC4)c23)c1)C1(C(=O)Nc2cc(Br)c(F)cc2F)CC1 | ~100 representative kinases (Homo sapiens, UniProt Q00532) | 1.69
Cc1ccc(-n2nc(C(C)(C)C)cc2NC(=O)Nc2cccc(-c3c[nH]c4ncnc(N5CCOCC5)c34)c2)cc1 | ~100 representative kinases (Homo sapiens, UniProt Q00532) | 10.84
Cc1ccc(NC(=O)C2(C(=O)Nc3cccc(-c4c[nH]c5ncnc(N6CCOCC6)c45)c3)CC2)cc1 | ~100 representative kinases (Homo sapiens, UniProt Q00532) | 1.85
CC(=O)N1CCN(c2nc(Cl)nc3[nH]cc(-c4cccc(NC(=O)Nc5cc(C(C)(C)C)nn5-c5ccc(C)cc5)c4)c23)CC1 | ~100 representative kinases (Homo sapiens, UniProt Q00532) | 5.56
CC(C)(C)c1cc(NC(=O)Nc2cccc(-c3c[nH]c4ncnc(N5CCOCC5)c34)c2)n(-c2ccc3ncccc3c2)n1 | ~100 representative kinases (Homo sapiens, UniProt Q00532) | 8.21
O=C(Nc1cccc(-c2c[nH]c3ncnc(N4CCOCC4)c23)c1)C1(C(=O)Nc2ccc(F)c(F)c2)CC1 | ~100 representative kinases (Homo sapiens, UniProt Q00532) | 2.59
C[C@@H]1CN(c2cc(-c3n[nH]c4ccc(OC5(C)CC5)cc34)ncn2)C[C@H](C)O1 | ~100 representative kinases (Homo sapiens, UniProt Q00532) | -0.11
O=C(Nc1cccc(-c2c[nH]c3ncnc(N4CCOCC4)c23)c1)c1cccn(-c2ccc(F)cc2)c1=O | ~100 representative kinases (Homo sapiens, UniProt Q00532) | 5.10
Cn1cc(-c2c[nH]c3ncnc(N4CCOCC4)c23)cc1C#N | ~100 representative kinases (Homo sapiens, UniProt Q00532) | -0.24
Cc1cc(F)ccc1NC(=O)C1(C(=O)Nc2cccc(-c3c[nH]c4ncnc(N5CCOCC5)c34)c2)CC1 | ~100 representative kinases (Homo sapiens, UniProt Q00532) | 1.46
Cc1cc(NC(=O)C2(C(=O)Nc3ccc(F)cc3)CC2)cc(-c2c[nH]c3ncnc(N4CCOCC4)c23)c1 | ~100 representative kinases (Homo sapiens, UniProt Q00532) | 0.62
COc1cc2c(Oc3ccc(NC(=O)C4(C(=O)Nc5ccc(F)cc5)CC4)cc3F)ccnc2cc1OCCCN1CCOCC1 [Foretinib, reference compound] | ~100 representative kinases (Homo sapiens, UniProt Q00532) | 1.22
CCc1ccc(NC(=O)C2(C(=O)Nc3cccc(-c4c[nH]c5ncnc(N6CCOCC6)c45)c3)CC2)cc1 | ~100 representative kinases (Homo sapiens, UniProt Q00532) | 2.19
COc1cc(NC(=O)C2(C(=O)Nc3cccc(-c4c[nH]c5ncnc(N6CCOCC6)c45)c3)CC2)ccc1F | ~100 representative kinases (Homo sapiens, UniProt Q00532) | 3.09
CCNc1nc(Nc2cc(F)c(C(=O)N3CCOCC3)cc2OC)ncc1C(F)(F)F | ~100 representative kinases (Homo sapiens, UniProt Q00532) | 0.08
COc1ccc(NC(=O)C2(C(=O)Nc3cccc(-c4c[nH]c5ncnc(N6CCOCC6)c45)c3)CC2)cc1 | ~100 representative kinases (Homo sapiens, UniProt Q00532) | 1.33
O=C(Nc1ccc(Cl)cc1)C1(C(=O)Nc2cccc(-c3c[nH]c4ncnc(N5CCOCC5)c34)c2)CC1 | ~100 representative kinases (Homo sapiens, UniProt Q00532) | 3.38
O=C(Nc1cccc(-c2c[nH]c3ncnc(N4CCOCC4)c23)c1)C1(C(=O)Nc2ccc(F)cc2F)CC1 | ~100 representative kinases (Homo sapiens, UniProt Q00532) | 1.97
Cc1ccc(C(=O)Nc2ccc(CN3CCN(C)CC3)c(C(F)(F)F)c2)cc1C#Cc1c[nH]c2ncnc(N3CCOCC3)c12 | ~100 representative kinases (Homo sapiens, UniProt Q00532) | 3.12
O=C(Nc1cccc(-c2c[nH]c3ncnc(N4CCOCC4)c23)c1)C1(C(=O)Nc2ccc(F)c(Br)c2)CC1 | ~100 representative kinases (Homo sapiens, UniProt Q00532) | 4.06
CC(C)(C)c1cccc(NC(=O)C2(C(=O)Nc3cccc(-c4c[nH]c5ncnc(N6CCOCC6)c45)c3)CC2)c1 | ~100 representative kinases (Homo sapiens, UniProt Q00532) | 4.95
Cc1ccc(-n2nc(C(C)(C)C)cc2NC(=O)Nc2cccc(-c3c[nH]c4nc(Cl)nc(N5CCOCC5)c34)c2)cc1 | ~100 representative kinases (Homo sapiens, UniProt Q00532) | 3.90
O=C(Nc1cc(F)cc(Br)c1)C1(C(=O)Nc2cccc(-c3c[nH]c4ncnc(N5CCOCC5)c34)c2)CC1 | ~100 representative kinases (Homo sapiens, UniProt Q00532) | 0.61
O=C(Nc1cccc(-c2c[nH]c3ncnc(N4CCOCC4)c23)c1)C1(C(=O)Nc2ccc(F)c(Cl)c2)CC1 | ~100 representative kinases (Homo sapiens, UniProt Q00532) | 3.38
COc1cc(S(C)(=O)=O)ccc1Nc1nc(N(C)C)c2c(Cl)c[nH]c2n1 | ~100 representative kinases (Homo sapiens, UniProt Q00532) | 0.44
Cc1cc(NC(=O)C2(C(=O)Nc3cccc(-c4c[nH]c5ncnc(N6CCOCC6)c45)c3)CC2)ccc1F | ~100 representative kinases (Homo sapiens, UniProt Q00532) | 5.67

* * *

# System: ~100 representative kinases (Homo sapiens)
# Construct: Recombinant protein kinase domains with a concentration of 2 μM
# Assay Details: DSF 100 kinase selectivity screen;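 further: compound tested at 20 µM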
# Assay type: binding
# Conditions Used: protein MELK; average of three replicates

Molecule Smiles | System | dTm, K
CN[C@@H]1C[C@H]2O[C@@](C)([C@@H]1OC)n1c3ccccc3c3c4c(c5c6ccccc6n2c5c31)C(=O)NC4 | ~100 representative kinases (Homo sapiens) | 14.15
Cc1ccc(C(=O)Nc2ccc(CN3CCN(C)CC3)c(C(F)(F)F)c2)cc1C#Cc1c[nH]c2ncnc(N3CCOCC3)c12 | ~100 representative kinases (Homo sapiens) | 8.08
Cc1ccc(NC(=O)C2(C(=O)Nc3cccc(-c4c[nH]c5ncnc(N6CCOCC6)c45)c3)CC2)cc1 | ~100 representative kinases (Homo sapiens) | 11.82
O=C(Nc1cccc(-c2c[nH]c3ncnc(N4CCOCC4)c23)c1)C1(C(=O)Nc2ccc(F)cc2F)CC1 | ~100 representative kinases (Homo sapiens) | 13.56

* * *

# System: ~100 representative kinases (Homo sapiens)
# Construct: Recombinant protein kinase domains with a concentration of 2 μM
# Assay Details: DSF 100 kinase selectivity screen;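 further: compound tested at 20 µM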
# Format: binding
# Conditions Used: Protein EPHA4; average of three replicates
The label is TRUE for dTm below 2 K and FALSE for dTm equal to or exceeding 2 K.

Compound | System | Category
CC(C)(C)c1cc(NC(=O)Nc2cccc(-c3c[nH]c4ncnc(N5CCOCC5)c34)c2)n(-c2ccc3ncccc3c2)n1 [Compound 28] | ~100 representative kinases (Homo sapiens) | FALSE
Cn1cc(-c2c[nH]c3ncnc(N4CCOCC4)c23)cc1C#N [PFE-360] | ~100 representative kinases (Homo sapiens) | TRUE
O=C(Nc1cccc(-c2c[nH]c3ncnc(N4CCOCC4)c23)c1)C1(C(=O)Nc2ccc(F)cc2F)CC1 [Compound 23] | ~100 representative kinases (Homo sapiens) | TRUE
O=C(Nc1cccc(-c2c[nH]c3ncnc(N4CCOCC4)c23)c1)C1(C(=O)Nc2ccc(F)c(Br)c2)CC1 [Compound 19] | ~100 representative kinases (Homo sapiens) | TRUE
Cc1ccc(-n2nc(C(C)(C)C)cc2NC(=O)Nc2cccc(-c3c[nH]c4nc(Cl)nc(N5CCOCC5)c34)c2)cc1 [Compound 30] | ~100 representative kinases (Homo sapiens) | TRUE
CCc1ccc(NC(=O)C2(C(=O)Nc3cccc(-c4c[nH]c5ncnc(N6CCOCC6)c45)c3)CC2)cc1 [Compound 15] | ~100 representative kinases (Homo sapiens) | FALSE
O=C(Nc1ccccc1)C1(C(=O)Nc2cccc(-c3c[nH]c4ncnc(N5CCOCC5)c34)c2)CC1 [Compound 12] | ~100 representative kinases (Homo sapiens) | TRUE
